Listing: MCC mammalian cells Vero E6 ATCC CRL1586 of selected compounds
tested on: Vero E6 ATCC CRL1586 cells; assay: Mammalian-cell cytotoxicity, minimal cytotoxic concentration (CellTiter96); assay type: cell-based
Give the value, in units of µg/mL, as a plain number.

Worked set:
O=C(NC(Cc1ccccc1)C(=O)Nc1cc(F)ccc1N1CCNCC1)c1ccccc1 (stereo not drawn) :: 17
COc1ccc(F)cc1NC(=O)C(Cc1ccc(O)cc1)NC(=O)c1ccccc1C (stereo not drawn) :: 70
Cc1ccccc1NC(=O)C(Cc1ccccc1)NC(=O)c1cccc(OC(F)F)c1 (stereo not drawn) :: 90

Attention now shifts to the item below.
## Input Tell me the measured MCC mammalian cells Vero E6 ATCC CRL1586 of O=C(NC(Cc1ccccc1)C(=O)Nc1cccc2c1OCO2)c1ccccc1 (stereo not drawn) , please.
## Output 33

----------
tested on: Mycobacterium tuberculosis H37Rv; assay: Microplate Alamar Blue assay (MABA) MIC, M. tuberculosis; assay type: cell-based; details: read-out: MIC Mycobacterium tuberculosis H37Rv
Listing: MIC of selected compounds
Give the value, in units of mg/L, as a plain number.

Worked set:
Cc1ccc(F)cc1NC(=O)C(Cc1ccccc1)NC(=O)c1ccccc1 (stereo not drawn) [I-75] :: 1.56
Cn1nnc2cccc(NC(=O)C(Cc3ccccc3)NC(=O)c3ccccc3F)c21 (stereo not drawn) [IX-300] :: 6.25
O=C(N[C@@H](Cc1ccccc1)C(=O)Nc1cc(Cl)ccc1N1CCNCC1)c1ccccc1F (racemic) [IX-274b] :: 6.25

## Input Report MIC for COc1ccc(Cl)cc1NC(=O)C(Cc1ccccc1)NC(=O)c1ccccc1F (stereo not drawn) [IX-278] tested on Mycobacterium tuberculosis H37Rv.
## Output 0.78

## Input Report MIC for O=C(NC(Cc1ccc(O)cc1)C(=O)Nc1ccccc1N1CCNCC1)c1cccs1 (stereo not drawn) [IX-219] tested on Mycobacterium tuberculosis H37Rv.
## Output 1.56

## Input Report MIC for Cc1ccc(Cl)cc1NC(=O)C(Cc1ccccc1)NC(=O)c1ccccc1F (stereo not drawn) [IX-55] tested on Mycobacterium tuberculosis H37Rv.
## Output 1.56

## Input Report MIC for O=C(NC(Cc1ccc(O)cc1)C(=O)Nc1cccc2c1CCCC2)c1ccccc1 (stereo not drawn) [IX-6] tested on Mycobacterium tuberculosis H37Rv.
## Output 6.25

----------
system: Mycobacterium tuberculosis H37Rv; assay: Microplate Alamar Blue assay (MABA) MIC, M. tuberculosis; type: cell-based; details: read-out: MIC Mycobacterium tuberculosis H37Rv
Measure: MIC (µg/mL)
Give the value, in units of µg/mL, as a plain number.

Worked set:
COc1ccccc1NC(=O)C(Cc1ccc(O)cc1)NC(=O)c1ccccc1 (stereo not drawn) :: 25
Cn1ncc2c(NC(=O)C(Cc3ccccc3)NC(=O)c3ccccc3F)cccc21 (stereo not drawn) :: 1.56
Cc1ccccc1NC(=O)C(Cc1ccc(O)cc1)NC(=O)c1cccs1 (stereo not drawn) :: 12.5
O=C(NC(Cc1ccc(O)cc1)C(=O)Nc1cccc2c1OCO2)c1ccccc1Br (stereo not drawn) :: 25

## Input Tell me the measured MIC of Cc1ccccc1C(=O)NC(Cc1ccccc1)C(=O)Nc1cccc2nc[nH]c12 (stereo not drawn) , please.
## Output 12.5

## Input Tell me the measured MIC of O=C(NC(Cc1ccccc1)C(=O)Nc1cc(F)ccc1N1CC2CNCC2C1)c1ccccc1F (stereo not drawn) , please.
## Output 1.56

## Input Tell me the measured MIC of COc1ccc(F)cc1NC(=O)C(Cc1ccc(O)cc1)NC(=O)c1ccccc1F (stereo not drawn) , please.
## Output 0.78

src = patent US9919998B2
